- TESTED_TARGET: T1, cynomolgus monkey GITR-Fc (cynomolgus monkey)
- T1 construct: extracellular domain; also called cGITR-FC; cGITR
- PROTOCOL_DETAILS: SPR; KD on cGITR-Fc over KD on hGITR-Fc

BINDER	Ratio cKD/hKD
anti-GITR antibody clone 698 (antibody, V domains shown, Murine hybridoma antibody; also called 698-GITR2; 698 GITR-2) VH: EVQLQQSGTVLARPGASVKMSCEASGYSFTTYWMHWIKQRPGQGLEWIGAIYPGNSDTGYNQKFKGKAKLTAVTSATTAYMELSSLTDEDSAVYYCTRTSTYPHFDYWGQGTTLTVSS VL: DILLTQSPAILSVSPGERVSFSCRASQSIGTSIHWYQQRTNGSPRLLIKYASESISGIPSRFSGSGSGTDFTLNINSVESEDIADYYCQQSNNWPLTFGAGTKLELK	5.5
anti-GITR antibody clone 827 (antibody, V domains shown, Murine hybridoma antibody; also called 827-GITR2; 827 GITR-2) VH: EVQLQQSGTVLARPGASVKMSCETSGYSFTTYWIHWIKQRPGQGLEWIATIYPGNSDAGYNQKFRGKAKLTAVTSASTAYMELSSLTNEDSAVYYCTRSSTYPHFDYWGQGTTLTVSS VL: DILLTQSPAILSVSPGERVSFSCRASQSIGTSIHWYQQRTNDSPRLLIKYASESISGIPSRFSGSGSGTDFTLNINSVESEDIADYYCQQTNNWPLTFGAGTKLELK	4.7
anti-GITR antibody clone 1718 (antibody, V domains shown, Murine hybridoma antibody; also called 1718-GITR2; 1718 GITR-2) VH: QVQVQQSGPELVKPGASVRISCKASDYTFTNYYIHWVRQRPGQGLEWLGWIYPGKGYTNYNEKFKGKATLTADKSSSTAYMQFSSLTSEDSAVYFCASGYGNYYFPYWGQGTLVTVSA VL: IQMTQSSSYLSVSLGGRVTITCKASDHIKNWLAWYQQKPGNVPRLLMSAATSLETGFPSRFSGSGSGKDFTLTITSLQTEDVATYYCQQYWSTPWTFGGGTKLEIK	1.3
anti-GITR antibody clone 1649 (antibody, V domains shown, Murine hybridoma antibody; also called 1649-GITR2; 1649 GITR-2) VH: EVQLQQSGTVLAGPGTSVKMSCEASGYSFTTYWIHWIKQRPGQGLEWIGAIYPGNSDAGYNQKFKGKAKLTAVTSASTAYMELSSLTNEDSAVYYCTRSSTYPHFDYWGQGTTLTVSS VL: DILLTQSPAILSVSPGERVSFSCRASQSIGTSIHWYQQRTNDSPRLLIKYASESISGIPSRFSGSGSGTDFTLNINSVESEDIADYYCQQTNNWPLTFGAGTKLELK	5.3
anti-GITR antibody clone 706 (antibody, V domains shown, Murine hybridoma antibody; also called 706-GITR2; 706 GITR-2) VH: EVQLQQSGTVLARPGASVKMSCEASGYSFTTYWMHWIKQRPGQGLEWIGAIYPGNSDTGYNQKFKGKAKLTAVTSASTAYMELSSLTNEDSAVYYCTRTSTYPHFDYWGQGTTLTVSS VL: DILLTQSPAILSVSPGERVSFSCRASQSIGTSIHWYQQRTNGSPRLLIKYASESISGIPSRFSGSGSGTDFTLNINSVESEDIADYYCQQTNNWPLTFGAGTKLELK	5.3
